Data provenance is paper PMC7914897.

System: Renal Cancer subpanel
measurementDescription: NCI-60 screen, subpanel
conditionDetails: Homo sapiens, read-out: GI50 MG_MID
Reported GI50 values for the following molecules.
Report the figure in nM without appending any unit label.

INSERT INTO results (molecule, observedvalue) VALUES
  ('C=C(C)[C@@H]1CC[C@]2(COS(=O)(=O)c3ccc(C)cc3)CC[C@]3(C)[C@@H](CC[C@@H]4[C@@]5(C)CCCNC(C)(C)[C@@H]5CC[C@]43C)[C@@H]12 [Compound 12]', 1760),
  ('CC1(C)NCCC[C@]2(C)[C@H]3C=CC4=C5C[C@@](C)(CO)CC[C@]5(C)CC[C@@]4(C)[C@]3(C)CC[C@@H]12 [Compound 6, azepano-glycyrrhetol-diene]', 4010);

Fill blank: measured GI50 of the molecule C=C(C)[C@@H]1CC[C@]2(C)[C@H](CC=C3[C@@H]4[C@@H](C)[C@H](C)CC[C@]4(CO)CC[C@]32C)[C@@]1(C)CCCN [Compound 19] is ____.
1560

Fill blank: measured GI50 of the molecule C=C(C)[C@@H]1CCC=C2CC[C@]3(C)[C@H](CC[C@@H]4[C@@]5(C)CCCNC(C)(C)[C@@H]5CC[C@]43C)[C@H]21 [Compound 8] is ____.
1790

Fill blank: measured GI50 of the molecule C[C@H]1[C@H](C)CC[C@]2(CO)CC[C@]3(C)C(=CC[C@@H]4[C@@]5(C)CCCNC(C)(C)[C@@H]5CC[C@]43C)[C@H]12 [Compound 4, azepanouvaol] is ____.
1470

====

System: SF-295 (CNS cancer)
measurementDescription: NCI-60 screen (SRB, 48 h)
conditionDetails: Homo sapiens, SF-295
readout: GI50
Answer format: number, then unit.

Fill blank: measured GI50 of the compound C=C(C)[C@@H]1CC[C@]2(C)[C@H](CC=C3[C@@H]4[C@@H](C)[C@H](C)CC[C@]4(CO)CC[C@]32C)[C@@]1(C)CCCN is ____.
850 nM

Fill blank: measured GI50 of the compound C=C(C)[C@@H]1CC[C@]2(COS(=O)(=O)c3ccc(C)cc3)CC[C@]3(C)[C@@H](CC[C@@H]4[C@@]5(C)CCCNC(C)(C)[C@@H]5CC[C@]43C)[C@@H]12 is ____.
1600 nM

Fill blank: measured GI50 of the compound CC1(C)CC[C@]23CC[C@]4(C)[C@H](CC[C@@H]5[C@@]6(C)CCCNC(C)(C)[C@@H]6CC[C@]54C)[C@H]2[C@H]1OC3 is ____.
1700 nM

Fill blank: measured GI50 of the compound C=C(C)[C@@H]1CC[C@]2(C(=O)N[C@H](CO)Cc3ccccc3)CC[C@]3(C)[C@H](CC[C@@H]4[C@@]5(C)CCCNC(C)(C)[C@@H]5CC[C@]43C)[C@@H]12 is ____.
1670 nM

Fill blank: measured GI50 of the compound Cc1ccc(S(=O)(=O)OC[C@@]2(C)CC[C@]3(C)CC[C@]4(C)C(=C3C2)C=C[C@@H]2[C@@]3(C)CCCNC(C)(C)[C@@H]3CC[C@]24C)cc1 is ____.
1780 nM

Fill blank: measured GI50 of the compound C[C@H]1[C@H](C)CC[C@]2(CO)CC[C@]3(C)C(=CC[C@@H]4[C@@]5(C)CCCNC(C)(C)[C@@H]5CC[C@]43C)[C@H]12 is ____.
1640 nM
